Ref: ChEMBL document CHEMBL4689842

Test system: Fibroblast
Assay: Incucyte cell viability with human fibroblast; note: filed as whole numbers so only -1 and 0 and 1 occur
Assay type: toxicity, cell-based
Conditions: 24 h, 10 µM, compound concentration 10 uM, replicate number 1, timepoint 24 hours
Readings of Growth Rate for the listed molecules
In your answer, state the number alone without any accompanying words.

// below: answered molecules
# molecule, Growth Rate
data = [
    ("CC1=C(C(=O)Nc2cc3cn[nH]c3cc2F)C(c2ccc(C(F)(F)F)cc2)CC(=O)N1 (stereo not drawn)", 1),
    ("CCOC(=O)c1cc2cc(-c3cc(C(=O)NCc4ccc(C(=O)O)cc4)nn3C)ccc2[nH]1", 1),
    ("CC(C)Oc1ccc(-c2c[nH]cc2CN(C)CCN)cc1", 1),
    ("CCOc1cn(-c2ccc(F)cc2C)nc1C(=O)Nc1ccc(Oc2ccnc3cc(OC)c(OC)cc23)c(F)c1", 0),
]

[in] Fill blank: measured Growth Rate of the molecule `C[C@]1(O)C[C@@H](c2nc(-c3ccc4ccc(-c5ccccc5)nc4c3)c3c(N)nccn32)C1` is ____.
[out] 1

[in] Okay, and `C=CC(=O)Nc1cccc(Sc2nc(Nc3ccc(N4CCN(C)CC4)cc3)ncc2Cl)c1` ?
[out] 0

[in] Okay, and `CSc1cccnc1N1CCN(Cc2nc3ccccc3[nH]2)CC1` ?
[out] 0

[in] Okay, and `CC(C)NC(=O)N1CC[C@H](NC2=Nc3cc(F)ccc3N(CC(F)F)c3ccc(Cl)cc32)C1` ?
[out] 0

[in] Okay, and `Cn1c(CNc2cccc(C(=O)NCc3ccccc3C(F)(F)F)c2)nnc1-c1ccncc1` ?
[out] 0

[in] Okay, and `Cl.O=C(O)c1cc(-c2ccc(C3CCNCC3)cc2)c2ccc(-c3ccc(C(F)(F)F)cc3)cc2c1` ?
[out] 1

[in] Okay, and `Cc1cc(-n2nc(Cc3cc(F)cc(C(F)(F)F)c3)nc2C)ccc1C(N)=O` ?
[out] 1

[in] Okay, and `COc1ccc(-c2ccc3ncc4c(c3c2)n(-c2ccc(N3CCNCC3)c(C(F)(F)F)c2)c(=O)n4C)cn1.O=C(O)/C=C\C(=O)O` ?
[out] 0

[in] Okay, and `S=C=Nc1cccc(NC(=S)NCCCCNC(=S)Nc2cccc(N=C=S)c2)c1` ?
[out] 0

====

System: HEK-293T
Experiment: Multiplex assay against HEK293T
Format: toxicity, cell-based
Conditions: human, 24 h, 10 µM, compound concentration 10 uM, replicate 1
Readings of Population Hoechst High Intensity Objects (%) for the listed molecules
In your response, put the unit directly after the numeric value.

[in] Fill blank: measured Population Hoechst High Intensity Objects (%) of the molecule COc1ccc(-c2ccc3ncc4c(c3c2)n(-c2ccc(N3CCNCC3)c(C(F)(F)F)c2)c(=O)n4C)cn1.O=C(O)/C=C\C(=O)O [BGT-226] is ____.
[out] 35%

[in] Okay, and `O=c1cc(N2CCOCC2)oc2c(-c3cccc4c3sc3ccccc34)cccc12` ?
[out] 16%

[in] Okay, and Cc1ccc2c(c1)c1c(n2CCc2ccc(C)nc2)CCN(C)C1 [LATREPIRDINE] ?
[out] 24%

[in] Okay, and `CC(C)NC(=O)N1CC[C@H](NC2=Nc3cc(F)ccc3N(CC(F)F)c3ccc(Cl)cc32)C1` ?
[out] 25%

[in] Okay, and CC1=C(C(=O)Nc2cc3cn[nH]c3cc2F)C(c2ccc(C(F)(F)F)cc2)CC(=O)N1 (configuration not stated) ?
[out] 10%

[in] Okay, and COC(=O)C1=C(C)NC(C)=C(C(=O)OCCCN2CCC(c3ccccc3)(c3ccccc3)CC2)[C@H]1c1cccc([N+](=O)[O-])c1 [NIGULDIPINE] ?
[out] 12%

[in] Okay, and CC(C)CC(=O)Nc1[nH]nc2c1CN(C(=O)C1CCN(C)CC1)C2(C)C [PHA-793887] ?
[out] 15%

[in] Okay, and `CC(C)OC(=O)N1CCC(Oc2ncnc3c2cnn3-c2ccc(S(C)(=O)=O)cc2F)CC1` ?
[out] 18%

[in] Okay, and CNC(=O)Nc1ccc2c(c1)[C@@]1(CC2)OC(=O)N(CC(=O)N(Cc2ccc(F)cc2)[C@@H](C)C(F)(F)F)C1=O [A-486] ?
[out] 9%

[in] Okay, and Cc1cccc(CN2CCN(C(c3ccccc3)c3ccc(Cl)cc3)CC2)c1.Cl.Cl (configuration not stated) ?
[out] 15%

[in] Okay, and CC(C)(C)NC[C@H](O)COc1nsnc1N1CCOCC1 [TIMOLOL] ?
[out] 12%

[in] Okay, and `COc1cc(Nc2nccc(-c3cnn4nc(OC)ccc34)n2)cc(C(F)(F)F)c1` ?
[out] 23%

[in] Okay, and `CNC(=O)Nc1ccc(-c2nc(N3CC4CCC(C3)O4)c3cnn(C4CCC5(CC4)OCCO5)c3n2)cc1` ?
[out] 27%

[in] Okay, and `O=c1[nH]c2ccccc2n1C1CCN(Cc2ccc(-c3[nH]c4cc5ncnc5cc4nc3-c3ccccc3)cc2)CC1` ?
[out] 31%

[in] Okay, and C[C@]12CC[C@@H]3c4ccc(O)cc4CC[C@H]3[C@@H]1CC[C@@H]2O [ESTRADIOL] ?
[out] 16%

[in] Okay, and COc1cc2ncn(-c3cc(OCc4ccccc4C(F)(F)F)c(C(N)=O)s3)c2cc1OC [GW843682X] ?
[out] 15%

[in] Okay, and `CCc1ccc(OCc2ccccc2C(=O)Nc2ccc3nc(C)cc(N)c3c2)cc1.Cl` ?
[out] 22%
